biological target: CaM N-lobe fragment (residues 1–80) (UniProt P0DP23 1-80); assay: ITC
quantityName: Kd (µM)
Give the value in µM but do not write µM after it.

Quick one: Kd for NDRLQELVKLFKERTEKVKEKLIDP (peptide, UniProt Q14028 565-589, looked up) [CaM1 peptide, CNGB1 residues 565–589] ?
5.7

All values here come from paper PMC9810080.
